Biological target: Cytochrome P450 2C9 (Homo sapiens) (UniProt P11712)
Sequence (P11712 whole entry, looked up): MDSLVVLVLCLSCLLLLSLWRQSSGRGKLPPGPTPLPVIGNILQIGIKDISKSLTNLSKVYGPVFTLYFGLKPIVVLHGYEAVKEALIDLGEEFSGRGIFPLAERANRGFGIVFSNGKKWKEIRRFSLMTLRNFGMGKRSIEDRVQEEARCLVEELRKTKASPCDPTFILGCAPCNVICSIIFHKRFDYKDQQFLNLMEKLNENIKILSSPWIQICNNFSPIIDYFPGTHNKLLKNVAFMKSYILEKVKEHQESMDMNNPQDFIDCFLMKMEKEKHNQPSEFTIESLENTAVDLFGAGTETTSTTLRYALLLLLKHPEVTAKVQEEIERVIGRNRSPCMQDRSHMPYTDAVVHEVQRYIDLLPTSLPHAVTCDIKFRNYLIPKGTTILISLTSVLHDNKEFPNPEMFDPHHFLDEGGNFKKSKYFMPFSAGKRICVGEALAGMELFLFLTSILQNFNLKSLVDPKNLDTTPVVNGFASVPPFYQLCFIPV
Experiment: Cytochrome P450 family 2 subfamily C member 9 (CYP2C9) small molecule antagonists: luciferase biochemical (cell-free) qHTS assay (AID 1645842); also: nearly all actives have a fitted effect of over 55% in size; also: potency is read from the fitted curve at half-maximal effect
Settings: P450-Glo CYP2C9 enzyme assay, luciferin luminescence; series mostly up to 57.4 µM
From the text: National Center for Advancing Translational Sciences [NCATS] Assay Overview: Cytochrome P450 (CYP) enzymes are membrane-bound hemeproteins that play a key role in metabolism of drugs and xenobiotics. Assaying the effect of chemicals on CYP isozymes is useful to minimize the adverse drug reactions and toxicities in drug development process. […] The luciferin products formed are detected with a luciferin detection reagent, and the amount of light produced is proportional to CYP activity. […]
Records with an inconclusive call do not appear. Calls of active or inactive are those of the source. Calls follow the shape of the dose curve; as a rule, active = well fitted inhibition curve with a large enough effect in the repeat runs; inconclusive = weak or mixed curves; inactive = no such curve, though single readings can be large or run the other way.
Reported Metric: Potency

                                    compound                             target_system  observed_measurement
 0  COc1cc(CC(C)N)cc2c1OCO2 (centres undefined)  Cytochrome P450 2C9 (Homo sapiens) (UniProt P11712)              inactive
 1     CCOC(C(=O)OCCN(C)C)(c1ccccc1)c1ccccc1  Cytochrome P450 2C9 (Homo sapiens) (UniProt P11712)      3.09 µM (active)
 2                       COC(=O)C1=CCCN(C)C1  Cytochrome P450 2C9 (Homo sapiens) (UniProt P11712)              inactive
 3  O=C1CN2CCOC2(c2ccccc2Cl)c2cc(Cl)ccc2N1 (centres undefined)  Cytochrome P450 2C9 (Homo sapiens) (UniProt P11712)              inactive
 4           CN1CCC(N(Cc2ccccc2)c2ccccc2)CC1  Cytochrome P450 2C9 (Homo sapiens) (UniProt P11712)              inactive
 5  O=C(N[C@H]1N=C(c2ccccc2F)c2cccc3c2N(CC3)C1=O)c1cc2ccccc2[nH]1  Cytochrome P450 2C9 (Homo sapiens) (UniProt P11712)      6.92 µM (active)
 6                   CCCCCCCCCCCCOS(=O)(=O)O  Cytochrome P450 2C9 (Homo sapiens) (UniProt P11712)              inactive
 7  O=C(CCCN1CCC(n2c(=O)[nH]c3ccccc32)CC1)c1ccc(F)cc1  Cytochrome P450 2C9 (Homo sapiens) (UniProt P11712)              inactive
 8                  CCC1(CC)C(=O)NC(=O)NC1=O  Cytochrome P450 2C9 (Homo sapiens) (UniProt P11712)              inactive
 9            Cc1nc2ccccc2c(=O)n1-c1ccccc1Cl  Cytochrome P450 2C9 (Homo sapiens) (UniProt P11712)      27.7 µM (active)
10  CC1Sc2c(C(=O)O)c(=O)c3cc(F)c(N4CCNCC4)cc3n21 (centres undefined)  Cytochrome P450 2C9 (Homo sapiens) (UniProt P11712)              inactive
11  COc1ccc2c3c1O[C@H]1[C@@H](O)C=C[C@H]4[C@@H](C2)N(C)CC[C@@]341  Cytochrome P450 2C9 (Homo sapiens) (UniProt P11712)              inactive
12                           O=C(O)Cc1ccccc1  Cytochrome P450 2C9 (Homo sapiens) (UniProt P11712)              inactive
13  C[C@]12CC[C@H]3[C@@H](CCC4=CC(=O)CC[C@@H]43)[C@@H]1CC[C@@H]2O  Cytochrome P450 2C9 (Homo sapiens) (UniProt P11712)              inactive
14  COc1cc(CC(C)N)c(OC)cc1Br (centres undefined)  Cytochrome P450 2C9 (Homo sapiens) (UniProt P11712)              inactive
15             CCOC(=O)NC(C)(C)Cc1ccc(Cl)cc1  Cytochrome P450 2C9 (Homo sapiens) (UniProt P11712)      15.5 µM (active)
16                  c1ccc2nc(N3CCNCC3)ccc2c1  Cytochrome P450 2C9 (Homo sapiens) (UniProt P11712)              inactive
17  C[C@]12CC[C@H]3[C@@H](CC=C4C[C@@H](O)CC[C@@]43C)[C@@H]1CC[C@@H]2O  Cytochrome P450 2C9 (Homo sapiens) (UniProt P11712)              inactive
18  CC(Cc1ccc2c(c1)OCO2)NO (centres undefined)  Cytochrome P450 2C9 (Homo sapiens) (UniProt P11712)      38.6 µM (active)
19  CN1[C@@H]2CC[C@H]1CC(OC(=O)c1cc(Cl)cc(Cl)c1)C2 (some centres undefined)  Cytochrome P450 2C9 (Homo sapiens) (UniProt P11712)              inactive
20  N#Cc1nn(-c2c(Cl)cc(C(F)(F)F)cc2Cl)c(N)c1S(=O)C(F)(F)F (centres undefined)  Cytochrome P450 2C9 (Homo sapiens) (UniProt P11712)      3.89 µM (active)
21             CCC(=O)OC1(c2ccccc2)CCN(C)CC1  Cytochrome P450 2C9 (Homo sapiens) (UniProt P11712)              inactive
22                  C[C@H]1CNCCc2ccc(Cl)cc21  Cytochrome P450 2C9 (Homo sapiens) (UniProt P11712)              inactive
23     CNC(C)Cc1ccccc1OC (centres undefined)  Cytochrome P450 2C9 (Homo sapiens) (UniProt P11712)              inactive
24     CCN(CC)CCOC(=O)C(C)(c1ccccc1)c1ccccc1  Cytochrome P450 2C9 (Homo sapiens) (UniProt P11712)      3.89 µM (active)
25                    CN(C)C(=S)SSC(=S)N(C)C  Cytochrome P450 2C9 (Homo sapiens) (UniProt P11712)      3.47 µM (active)
26                       Oc1c(Br)cc(Br)cc1Br  Cytochrome P450 2C9 (Homo sapiens) (UniProt P11712)              inactive
27  CCOC(=O)C(c1c(O)c2ccccc2oc1=O)c1c(O)c2ccccc2oc1=O  Cytochrome P450 2C9 (Homo sapiens) (UniProt P11712)      3.09 µM (active)
28  O=C1NCN(c2ccccc2)C12CCN(CCCOc1ccc(F)cc1)CC2  Cytochrome P450 2C9 (Homo sapiens) (UniProt P11712)              inactive
29  CN1CCc2cc(Cl)c(O)cc2[C@H]2c3ccccc3CC[C@@H]21  Cytochrome P450 2C9 (Homo sapiens) (UniProt P11712)              inactive
30  C=CCOC(Cn1ccnc1)c1ccc(Cl)cc1Cl (centres undefined)  Cytochrome P450 2C9 (Homo sapiens) (UniProt P11712)     0.683 µM (active)
31                     COP(=O)(OC)OC=C(Cl)Cl  Cytochrome P450 2C9 (Homo sapiens) (UniProt P11712)              inactive
32      Cc1ccc(N=CN(C)C=Nc2ccc(C)cc2C)c(C)c1  Cytochrome P450 2C9 (Homo sapiens) (UniProt P11712)              inactive
33  CN1C(=O)CN=C(c2ccccc2)c2cc([N+](=O)[O-])ccc21  Cytochrome P450 2C9 (Homo sapiens) (UniProt P11712)              inactive
34            CCCCCCCCC(=O)NCc1ccc(O)c(OC)c1  Cytochrome P450 2C9 (Homo sapiens) (UniProt P11712)     0.692 µM (active)
35                    COc1cc(CC#N)cc(OC)c1OC  Cytochrome P450 2C9 (Homo sapiens) (UniProt P11712)              inactive
36                CN(C)CCc1c[nH]c2cccc(O)c12  Cytochrome P450 2C9 (Homo sapiens) (UniProt P11712)              inactive
37  CN(C)C(=O)Oc1cc(OC(=O)N(C)C)cc(C(O)CNC(C)(C)C)c1 (centres undefined)  Cytochrome P450 2C9 (Homo sapiens) (UniProt P11712)              inactive
38                   CN(C)CCc1c[nH]c2ccccc12  Cytochrome P450 2C9 (Homo sapiens) (UniProt P11712)              inactive
39                CN(C)CCc1c[nH]c2ccc(O)cc12  Cytochrome P450 2C9 (Homo sapiens) (UniProt P11712)              inactive
40  COP(=S)(OC)Oc1ccc(Sc2ccc(OP(=S)(OC)OC)cc2)cc1  Cytochrome P450 2C9 (Homo sapiens) (UniProt P11712)      15.5 µM (active)
41  C[C@]12CC[C@H]3[C@@H](CCC4=CC(=O)CC[C@@]43C)[C@@H]1CC[C@@H]2C(=O)O  Cytochrome P450 2C9 (Homo sapiens) (UniProt P11712)              inactive
42  CCCC[N+]1(C)[C@@H]2CC(OC(=O)[C@H](CO)c3ccccc3)C[C@H]1[C@@H]1O[C@@H]12 (some centres undefined)  Cytochrome P450 2C9 (Homo sapiens) (UniProt P11712)              inactive
43  CC(CC(C(N)=O)(c1ccccc1)c1ccccc1)N(C)C (centres undefined)  Cytochrome P450 2C9 (Homo sapiens) (UniProt P11712)              inactive
44        O=C(O)CCCCCCNC1c2ccccc2CCc2ccccc21  Cytochrome P450 2C9 (Homo sapiens) (UniProt P11712)              inactive
45            O=c1[nH]c2cc(Cl)ccc2n1C1CCNCC1  Cytochrome P450 2C9 (Homo sapiens) (UniProt P11712)              inactive
46  CN1C[C@@H](NS(=O)(=O)N(C)C)C[C@@H]2c3cccc4c3c(cn4C)C[C@H]21  Cytochrome P450 2C9 (Homo sapiens) (UniProt P11712)              inactive
47  CC[C@]1(O)CC[C@H]2[C@@H]3CCC4=CCCC[C@@H]4[C@H]3CC[C@@]21C  Cytochrome P450 2C9 (Homo sapiens) (UniProt P11712)              inactive
48                          NC(=O)CN1CCCC1=O  Cytochrome P450 2C9 (Homo sapiens) (UniProt P11712)              inactive
